System: carboxypeptidase G
Assay Procedure: Carboxypeptidase G enantiospecific hydrolysis of folic acid derivatives (HPLC of released pteroic acid)
Assay type: biochemical
Stated Conditions: Tris buffer with ZnCl2, 37° C., 2 h; pyrofolates and monoesters first hydrolysed in 0.25 M NaOH; error about ±2-3%
This listing pairs compounds with measured % Hydrolysis.
Entry rule: numbers only, all in %.

Observe how each entry below is paired with its result.
Compound	% Hydrolysis (%)
Nc1nc2ncc(CNc3ccc(C(=O)N[C@H](CCC(=O)O)C(=O)O)cc3)nc2c(=O)[nH]1 [Compound D-25a]	3.0
COC(=O)CC[C@H](NC(=O)c1ccc(NCc2cnc3nc(N)[nH]c(=O)c3n2)cc1)C(=O)O [Compound L-33a]	96.8
Nc1nc2ncc(CNc3ccc(C(=O)N[C@@H](CCC(=O)O)C(=O)O)cc3)nc2c(=O)[nH]1	96.7

// % Hydrolysis lookup, compound = Nc1nc2ncc(CNc3ccc(C(=O)N4C(=O)CCC4C(=O)O)cc3)nc2c(=O)[nH]1 (stereo not shown) , result: 51.7
